Biological target: T1, GST-Egl512-819 (Drosophila melanogaster, UniProt Q9W1K4 512-819)
T1 sequence: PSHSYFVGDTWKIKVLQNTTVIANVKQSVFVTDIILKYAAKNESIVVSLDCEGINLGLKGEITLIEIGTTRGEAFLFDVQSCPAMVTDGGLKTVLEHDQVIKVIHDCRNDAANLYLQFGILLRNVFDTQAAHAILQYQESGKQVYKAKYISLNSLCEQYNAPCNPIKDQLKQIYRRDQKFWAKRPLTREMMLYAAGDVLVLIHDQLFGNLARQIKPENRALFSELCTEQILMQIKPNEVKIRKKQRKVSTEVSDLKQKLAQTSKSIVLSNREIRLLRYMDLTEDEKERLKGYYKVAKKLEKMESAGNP
Test: fluorescence anisotropy; FA: 20 mM HEPES-NaOH pH 7.5, 100 mM NaCl, 10% glycerol, 20 C, 10 nM FAM-RNA; competition: 150 nM Egl512-819 + 10 nM FAM-K10 TLS, same buffer
Conditions: protein: recombinant; tags: N-terminal GST (TEV site); blunt
measurement_kind: pKd
Please keep in mind that pKd is minus log10 of the molar concentration; only the number is needed.

Look up pKd for this binder: dsRNA (dsRNA) RNA 1: UGAGUGCCAGAAGCUGCCUC RNA 2: GAGGCAGCUUCUGGCACUCA 6.72

Origin of the recorded values: paper doi:10.1101/2025.08.03.668247
